Origin of measurements: ChEMBL document CHEMBL1154703

assay notes: Inhibition of Abeta (1-40) assessed as blockade of amyloid-like aggregates at 100 uM by Congo red binding assay
Active and inactive are the calls of the source. No cut-off for these calls is given here. Non-standard residues stand in square brackets, D forms with d. Residues, ends and D or L forms follow the SMILES beside them. NMeI = CC[C@H](C)[C@H](NC)C(=O)O; NMeL = CN[C@@H](CC(C)C)C(=O)O; NMeV = CN[C@H](C(=O)O)C(C)C; Sar = CNCC(=O)O
measure: Activity

CC[C@H](C)[C@H](NC(C)=O)C(=O)N(C)CC(=O)N[C@@H](CC(C)C)C(=O)N[C@@H](CCSC)C(=O)N[C@H](C(=O)N(C)CC(N)=O)C(C)C (Ac-I[Sar]LMV[Sar]-NH2): inactive
CC[C@H](C)[C@H](NC(C)=O)C(=O)NCC(=O)N[C@@H](CC(C)C)C(=O)N[C@@H](CCSC)C(=O)N[C@H](C(=O)NCC(N)=O)C(C)C (Ac-IGLMVG-NH2): inactive
CC[C@H](C)[C@@H](C(=O)NCC(=O)N(C)[C@@H](CC(C)C)C(=O)N[C@@H](CCSC)C(=O)N(C)[C@H](C(=O)NCC(N)=O)C(C)C)N(C)C(C)=O (Ac-[NMeI]G[NMeL]M[NMeV]G-NH2): inactive

* * *

assay notes: Inhibition of fibril formation of Abeta (1-40) assessed as fibril levels at 1:10 molar ratio of Abeta and ligand after 72 hrs by transmission electron microscopy relative to untreated control
Set-up: scale not given: the % may be the effect or the level left
Non-standard residues stand in square brackets, D forms with d. Residues, ends and D or L forms follow the SMILES beside them. NMeI = CC[C@H](C)[C@H](NC)C(=O)O; NMeL = CN[C@@H](CC(C)C)C(=O)O; NMeV = CN[C@H](C(=O)O)C(C)C; Sar = CNCC(=O)O
measure: Activity (%)

Example entries and their recorded answers appear below.
CC[C@H](C)[C@@H](C(=O)NCC(=O)N(C)[C@@H](CC(C)C)C(=O)N[C@@H](CCSC)C(=O)N(C)[C@H](C(=O)NCC(N)=O)C(C)C)N(C)C(C)=O (Ac-[NMeI]G[NMeL]M[NMeV]G-NH2): 50
CC[C@H](C)[C@H](NC(C)=O)C(=O)NCC(=O)N[C@@H](CC(C)C)C(=O)N[C@@H](CCSC)C(=O)N[C@H](C(=O)NCC(N)=O)C(C)C (Ac-IGLMVG-NH2): 75

[I] CC[C@H](C)[C@@H](C(=O)N(C)CC(=O)N(C)[C@@H](CC(C)C)C(=O)N[C@@H](CCSC)C(=O)N(C)[C@H](C(=O)N(C)CC(N)=O)C(C)C)N(C)C(C)=O (Ac-[NMeI][Sar][NMeL]M[NMeV][Sar]-NH2)
[II] CC[C@H](C)[C@H](NC(C)=O)C(=O)N(C)CC(=O)N[C@@H](CC(C)C)C(=O)N[C@@H](CCSC)C(=O)N[C@H](C(=O)N(C)CC(N)=O)C(C)C (Ac-I[Sar]LMV[Sar]-NH2)
Problem: Higher Activity: I or II ? I would appreciate it if you answered with the label of your choice.
Result: II
